Cited source: PubChem BioAssay (NCI)

- assay-summary: NCI Yeast Anticancer Drug Screen. Data for the mec2-1 strain (AID 157)
- condition-details: S. cerevisiae mec2-1 strain, at 50.0 µM
This is part of a sample that, as a whole, favours compounds with a hit. Of some 79,000 tested, about 15% had one in any assay. Calls of active or inactive are those of the source. No stated cut-off is given here; in the data, active means growth inhibition above about 70%; inactive means the rest.
Outcomes: active, inactive

[
  {
    "molecule": "C1=C(CN2CCCCC2)COc2ccccc21",
    "group-label": "inactive"
  },
  {
    "molecule": "CCCCCCCCCCCCCCCC[N+](C)(C)c1nc(Cl)nc(Cl)n1",
    "group-label": "active"
  },
  {
    "molecule": "Cc1cccc(Cc2ccccc2Cl)c1O",
    "group-label": "inactive"
  },
  {
    "molecule": "O=C(NCCCCCCNC(=O)n1cc(F)c(=O)[nH]c1=O)NCCCOCCOCCOCCOCCOCCOCCOCCOCCOCCOCCOCCOCCOCCOCCOCCOCCOCCOCCOCCOCCOCCCNC(=O)C(O)C(O)C(OC1OC(CO)C(O)C(O)C1O)C(O)CO (configuration not stated)",
    "group-label": "active"
  },
  {
    "molecule": "CCOc1ccc(N/N=C(\\CCC(=O)O)C(=O)O)cc1",
    "group-label": "active"
  },
  {
    "molecule": "Fc1ccccc1-c1ncc(-c2ccccc2)o1",
    "group-label": "inactive"
  },
  {
    "molecule": "CC(=O)OC1CC2C(C)(C)C(=O)C=C[C@]2(C)C2CCC3(C)C(=CC(=O)C3c3ccoc3)[C@]12C (some centres not stated)",
    "group-label": "inactive"
  },
  {
    "molecule": "Nc1ccc2c(n1)NCC/C2=N\\Nc1ccccc1",
    "group-label": "active"
  },
  {
    "molecule": "CN(C)CCNC(=O)Cc1cc(O)c2c(c1O)C(=O)c1ccccc1C2=O",
    "group-label": "inactive"
  },
  {
    "molecule": "Nc1cc2c(cc1Cl)[nH]c(=O)c1cc(Cl)ccc12",
    "group-label": "inactive"
  },
  {
    "molecule": "O=C1Nc2ccccc2C1(O)C/C(=N/O)c1ccc2ccccc2c1 (configuration not stated)",
    "group-label": "inactive"
  },
  {
    "molecule": "COc1ccc(Cc2ccc(O)cc2)cc1",
    "group-label": "inactive"
  }
]
